Taken from patent US20210032312A1.

system_tested: T1, human CD8 alpha (CD8A) on primary human CD8+ T cells (human, UniProt P01732 22-235)
T1 construct: whole, on cells; also called hCD8A
experiment: flow cytometry, human CD8+ T cells, 2 uM FN3
Experimental: Binding of the 190 ELISA hits to human and cynomologous monkey primary CD8 T cells was assessed by flow cytometry. The FN3 domain molecules were diluted to 2 μM and 0.2 μM in PBS and incubated with human or cynomologous monkey CD8+ T cells in 96-well format. […] Cells were gating on live cells and median fluorescence intensity of the bound Centyrins (PE channel) was calculated using Cytobank software.
Label 1 (yes) when Human T-cell Binding 2 uM (MFI) is strictly below 20000 MFI; otherwise label 0 (no).

Sample answers from the record:
# binder, category_label
data = [
    ("P282ER9P1360_C1 (designed binder, FN3 domain) LPAPKNLVVSRVTEDSARLSWTTPDAAFDSFGILYYEPVDSGEAITLPVPGSERSYDLTGLKPGTEYWVVITGVKGGAPSTPLGAIFTT", "0 (no)"),
    ("P282ER9P1360_C4 (designed binder, FN3 domain) LPAPKNLVVSRVTEDSARLSWTAPDAAFDSFGITYYEPNHGGEAISLSVPGSERSYDPTGLKPGTEYWVVITGVKGGAPSTPLGAIFTT", "1 (yes)"),
    ("P282DR9P1359_B2 (designed binder, FN3 domain) LPAPKNLVVSRVTEDSARLSWTAPDAAFDSFWIAYTEWPIPYEEAGQEGEAIVLTVPGSERSYDLTGLKPGTEYWVSIYGVKGGPNSQPLSAIFTT", "0 (no)"),
    ("P282DR9P1359_C10 (designed binder, FN3 domain) LPAPKNLVVSRVTEDSARLSWTAPDAAFDSFAIVYPEWPTDGEAIVLTVPGSERSYDLTGLKPGTEYAVFIWGVKGGNQSWPLSAIFTT", "0 (no)"),
]

For this binder, is Human T-cell Binding 2 uM (MFI) lower than 20000 MFI? P283AR9P1362_C6 (designed binder, FN3 domain) LPAPKNLVVSRVTEDSARLSWYPSDPPFDSFLIQYQESEKVGEAIVLTVPGSERSYDLTGLKPGTEYTVSIYGVPNYHSRRSYYYSNPLSAIFTT
1 (yes)

Then this binder: P282CR9P1358_F5 (designed binder, FN3 domain) LPAPKNLVVSRVTEDSARLSWTAPDAAFDSFWISYPEWPPDGEAIVLTVPGSERSYDLTGLKPGTEYFVIIWGVKGGETSAPLSAIFTT
0 (no)

Another binder to check: P282AR9P1356_D3 (designed binder, FN3 domain) LPAPKNLVVSRVTEDSARLSWTRHETSFDSFLIQYRESEKVGEAIVLTVPGSERSYDLTGLKPGTEYTVSIYGVVVEYDAAGNPKYSNPLSAIFTT
1 (yes)

Next: P282FR9P1361_D3 (designed binder, FN3 domain) LPAPKNLVVSRVTEDSARLSWTAPDAAFDSFDIWYAEYGYPGEAIVLTVPGSERSYDLTGLNPGTEYDVAISGVKGGPRSYPLSAIFTT
1 (yes)
